Test system: HT-29 cells
experimental-details: In vitro cell assay (MTS cell viability), HT-29 (target non-expressing)
Format: cell-based
reported-conditions: Homo sapiens, HT-29, 96 h, free compounds; 96 hours after treatment; read-out: HT29 IC50
Please note: IC50 exactly at 5 nM is no. Only values below 5 nM get yes.

Hello, I'm reviewing records and need to know if IC50 of CC[C@H](C)[C@H](NC(=O)[C@@]1(C)CCCN1C)C(=O)N(C)[C@H](C[C@@H](OC(=O)N(C)C)c1nc(C(=O)N[C@@H](Cc2ccc(N)cc2)C[C@H](C)C(=O)O)cs1)C(C)C [#B31] is below 5 nM. Could you check?
yes

Hello, I'm reviewing records and need to know if IC50 of CC[C@H](C)[C@H](NC(=O)[C@@]1(C)CCCN1C)C(=O)N(C)[C@H](C[C@@H](OC(C)=O)c1nc(C(=O)N[C@@H](Cc2ccc(N)cc2)c2nccs2)cs1)C(C)C [#B80] is below 5 nM. Could you check?
yes

Hello, I'm reviewing records and need to know if IC50 of CC[C@H](C)[C@H](NC(=O)C12CC(CN1C)C2)C(=O)N(C)[C@H](C[C@@H](OC(C)=O)c1nc(C(=O)N[C@@H](Cc2ccccc2)C[C@H](C)C(=O)OC)cs1)C(C)C [#B17] is below 5 nM. Could you check?
yes

Hello, I'm reviewing records and need to know if IC50 of CC[C@H](C)[C@H](NC(=O)[C@@]1(C)CCCN1C)C(=O)N(C)[C@H](C[C@@H](NC(C)=O)c1nc(C(=O)N[C@@H](Cc2ccccc2)C[C@H](C)C(=O)O)cs1)C(C)C [#B19] is below 5 nM. Could you check?
no

Hello, I'm reviewing records and need to know if IC50 of CCNC(=O)O[C@H](C[C@H](C(C)C)N(C)C(=O)[C@@H](NC(=O)C12CCCC(CCC1)N2C)[C@@H](C)CC)c1nc(C(=O)N[C@@H](Cc2ccc(N)cc2)C[C@H](C)C(=O)O)cs1 [#B27] is below 5 nM. Could you check?
no
